- Test: DUSP6 inhibitors restoring Erk phosphorylation by chemical complementation, primary imaging in DUSP6-transfected HeLa (AID 609)
- Condition Summary: HeLa MKP-3 transfected, phospho-Erk imaging KS statistic; measured here: cell density z-score; at 10 µM; cells stimulated with TPA for 15 min
Use 0.4 as the dividing line for z-score, with the line itself on the Criterion met side and lower values as Criterion not met.

Assess whether reported z-score for CCc1nc(SCc2cccnc2)c(C#N)cc1C sits at 0.4 or higher.
Criterion not met

Same question, CN1CCN(C(=O)CSc2nc(-c3ccncc3)ccc2C#N)CC1 this time
Criterion met

Cool, now CC(C)Cc1nc2n[nH]c(N)c2c2c1CCC2
Criterion met

Try the compound O=S1(=O)C[C@@H](N2CCOCC2)[C@H](N2CCOCC2)C1
Criterion not met

Next compound up: CCCCNC1=C(Br)C(=O)CC(C)(C)C1
Criterion not met

CC(C)N=c1cc2n(-c3ccc(Cl)cc3)c3ccccc3nc-2cc1Nc1ccc(Cl)cc1 ?
Criterion not met

Next: O=C(NCCOCCOCCNC(=O)c1cccnc1)c1cccnc1
Criterion not met

Then Cc1nnc2c(NC(C)C)nc3ccccc3n12 ?
Criterion met

And the next one, OCCN(CCO)c1ncnc2c1sc1nc(N3CCOCC3)c3c(c12)CCCC3 ?
Criterion met

Follow-up entry: O=c1/c(=C\c2cccn2-c2ccccc2)sc2nc3ccccc3n12
Criterion not met

Same read-out for Cc1c(/C(O)=C2\C(=O)C(=O)N(CCN(C)C)C2c2cccnc2)cnn1-c1ccccc1 (stereo unspecified) ?
Criterion met

Then what about the compound Cc1nc(N2CCOCC2)c(C#N)c2c1COC(C)(C)C2 ?
Criterion not met

Now consider Cc1c(N2C(=O)SC(CC(=O)O)C2=O)c(=O)n(-c2ccccc2)n1C (stereo unspecified) and answer again.
Criterion not met

Entry COc1ccc(-c2nn3c(COc4ccccc4)nnc3s2)cc1OC please
Criterion met

Cc1ccc(-n2nc3cc(Cl)c(NC(=O)c4ccco4)cc3n2)cc1 ?
Criterion not met

# repeat for COc1ccc(OC)c(C2=Nn3c(nnc3C3CCCCC3)SC2)c1
Criterion not met

How about this compound: CC1=C(C(=O)Nc2ccccc2)C(c2ccncc2)C(C#N)=C(SCC(=O)NC(C)C)N1 (stereo unspecified)
Criterion not met

Another compound to check: CCCCc1c(C)c2ccc(OCC(C)=O)cc2oc1=O
Criterion not met

Do the same for CC(O)c1n(C)c(Cl)c[n+]1C (stereo unspecified) please
Criterion not met

Field entry: Cc1ccc2c(c1)[C@@H]1CN(C)CC[C@@H]1N2S(=O)(=O)c1ccc(F)cc1
Criterion not met

Next compound: CC(=O)OCC(=O)[C@H]1CC[C@H]2[C@@H]3CCC4=CC(=O)CC[C@]4(C)[C@H]3CC[C@]12C
Criterion not met

How about CC1(C)Cc2c(sc3ncn4nnnc4c23)CO1 ?
Criterion met

For O=C(O)CC(C(=O)OCC1CCCO1)N1CCOCC1 (stereo unspecified) then?
Criterion met

Similarly, CC(C)(C)c1cccc(/C=N/O)c1O ?
Criterion met

Next record, please: COC(=O)c1cc(Br)c(=O)n(Cc2cccnc2)c1
Criterion not met

And the next one, CC(C)N1CC=C2C(C#N)=C(N)C(C#N)(C#N)C(c3ccccc3)C2C1 (stereo unspecified) ?
Criterion met

Same again, this time with CCCC1C2C(=O)N(c3ccccc3OC)C(=O)C2ON1c1ccccc1 (stereo unspecified)
Criterion met

# iterate: COc1ccc(-c2nn3c(C4CCCCC4)nnc3s2)cc1OC
Criterion not met

Again, but for CC1(C)CC(=O)C2=C(C1)Oc1nc3ccccc3cc1C2C(C#N)C#N (stereo unspecified)
Criterion not met

Then this compound: COCCCNc1nc(-c2ccncc2)nc2ccccc12
Criterion met

Try C[N+]12CCC(CC1)C(OC(=O)C(O)(c1ccccc1)c1ccccc1)C2 (stereo unspecified) next.
Criterion not met

Here is the next compound: CN(C)/C=C1\N=C(c2ccc(Cl)cc2Cl)OC1=O
Criterion not met

Subsequent entry: CN(C)C=C1C(=O)c2ccccc2C1=O
Criterion not met

What do we get for COc1ccc2nc(S(=O)Cc3ncc(C)c(OC)c3C)[nH]c2c1 (stereo unspecified) ?
Criterion not met

Similarly, COc1cccc(-c2nnc3sc(-c4ccc(C)cc4)nn23)c1 ?
Criterion not met

Same lookup for CCC1(C)Cc2c(sc3[nH]c(=O)[nH]c(=O)c23)CS1 (stereo unspecified) , please.
Criterion met

Now give it for CC(C)CC(=O)Nc1ncnc2c1C(=O)CC(C)(C)C2 too.
Criterion met

Moving on to CCCCC[C@H](O)/C=C/[C@@H]1[C@@H](CCCCCCC(=O)O)[C@@H](O)C[C@H]1O
Criterion not met

Subsequent entry: CCN(CC)S(=O)(=O)c1cccc2c(N(C)C)cccc12
Criterion not met

Proceed to COc1ccc(C2C(C#N)=C(N)SC(N)=C2C#N)cc1OC
Criterion not met

Param item: Cc1cccc(N2C(=O)CC(N3CCN(Cc4ccc(Cl)cc4)CC3)C2=O)c1 (stereo unspecified)
Criterion met

Param item: CCCCc1nc(NCCNC(=O)c2ccco2)c(C#N)c2c1CSC(C)(C)C2
Criterion not met

Follow-up item: N#Cc1c(-c2ccccc2Cl)cc(C2CC2)nc1N
Criterion not met

Try CC1CCc2cc(F)cc3c(O)c(C(=O)NCC4CCCO4)c(=O)n1c23 (stereo unspecified) next.
Criterion not met

Follow-up entry: COc1ccccc1-c1nnc2sc(COc3ccccc3)nn12
Criterion not met

And then Cn1c(SCC(=O)N2CCOCC2)nnc1-c1cccc(NC(=O)c2ccccc2F)c1 , what is it?
Criterion not met

----------
- Test: inhibitors of Sendai virus-induced IRF3 signaling, primary screen, TLR/RLR signaling modifier project, cell-based, Sendai virus stimulus, luciferase, 10K MLSCN set (AID 602276);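 also: firefly luciferase from ISG56 promoter only with Renilla not read in this screen; 0% = Sendai virus plus DMSO and 100% = medium plus DMSO without virus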
- Condition Summary: HEK293 RL24 IRF3 luciferase reporter, at 10 µM, stronger effect = higher value
Observed Property: inhibition (%)
Kindly answer with a numeric value in %, unit omitted.

So what's the measured inhibition for this one? CCN(CC)C(=O)c1ccc(O)c(OC)c1
-6.3

// repeat for COc1cc(-c2nn3c(-c4cccnc4)nnc3s2)cc(OC)c1OC and report
12.1

Next: CCn1cc(C(=O)O)c(=O)c2cc(F)c(N3CCNCC3)cc21
-0.442

// query: O=C(c1cccc2ccccc12)N1CCC(N2CCN(c3ccccc3)CC2)CC1
4.24

Can you check CCCCOc1ccc(CC(=O)NO)cc1 next?
13.6

Next: C[N+]12CCC(CC1)C(OC(=O)C(O)(c1ccccc1)c1ccccc1)C2 (centres undefined)
6.28

Queued: Cc1cc(O)c(C(C)C)cc1N=C1CSC(=O)N1
13

Subsequent entry: O=C1CSC(=Nc2ccc(O)cc2)N1c1ccc(O)cc1
17.9

Request: O=C(O)Cc1cc(I)c(Oc2ccc(O)c(I)c2)c(I)c1
-15.1

# iterate: NC(N)=NC(=O)c1nc(Cl)c(N)nc1N
15.9

Repeat with CCc1nc2sc3c(c2c(=O)o1)CCCC3
23

Query C=CCSc1nnc2n(CCc3ccccc3)c(=O)c3c4c(sc3n12)COC(C)(C)C4 next
0.226

Please do the same for CCN(CCCCOC(=O)c1ccc(OC)c(OC)c1)C(C)Cc1ccc(OC)cc1 (centres undefined) as well.
-44.7

Consider next the molecule CN1CCN2c3ccccc3Cc3ccccc3C2C1 (centres undefined) in the same way.
12.6

Try the molecule CCCCC[C@H](O)/C=C/C1=C(CCCCCCC(=O)O)C(=O)CC1
7.96

What about COC(=O)CNC(=O)c1c(C)cc(=O)oc1C ?
5.18

Please do the same for O=C(OCC#CCSc1nnc(-c2ccccc2)o1)c1cccs1 as well.
-0.522

Also CC(C)(C)n1cnc2cc(NS(=O)(=O)c3ccc(Br)cc3)ccc21 ?
15.5

Also need O=C(NCc1cccnc1)/C(=N\O)c1ccccc1 , thanks.
6.94

Entry to check: CC1CNCCN1S(=O)(=O)c1cccc2cnccc12 (centres undefined)
15.5

Query CCc1cc2c(=O)c(-c3cscn3)coc2cc1O next
20.6

Same question, COC(=O)CSc1nc2sc3c(c2c(=O)n1C1CCCCC1)CCN(C)C3 this time
15.7

Cool, now Cc1nc(NS(=O)(=O)c2ccccc2)sc1NC(=O)OC(C)C
2.77

And what about the molecule c1ccc2[nH]c(-c3cscn3)nc2c1 ?
-40.2

Proceed to c1cc2c(cc1C1=Nn3c(nnc3C3CCCCC3)SC1)OCO2
25.1

// next record CCC(=O)Oc1ccc(/C(CC)=C(\CC)c2ccc(OC(=O)CC)cc2)cc1
11.1

Same for Cn1cnc2c1c(=O)[nH]c(=O)n2C
13.1

And what about the molecule CO[C@H]1C[C@@H]2CC[C@@H](C)[C@@](O)(O2)C(=O)C(=O)N2CCCC[C@H]2C(=O)O[C@H]([C@H](C)C[C@@H]2CC[C@@H](O)[C@H](OC)C2)CC(=O)[C@H](C)C=C(C)[C@@H](O)[C@@H](OC)C(=O)[C@H](C)C[C@H](C)C=CC=CC=C1C ?
21.8

What about CC(C)C(=O)N1CCN(c2nc(-c3ccccc3)c3c(c2C#N)CCCC3)CC1 ?
-7.38

Please answer likewise for C[C@]12CCC(=O)C=C1CC[C@@H]1[C@@H]2[C@@H](O)C[C@@]2(C)[C@H]1CC[C@]2(O)C(=O)CO
4.18

Another molecule to look at: OCCNc1ncnc2c1c(-c1ccccc1)c(-c1ccccc1)n2Cc1ccco1
12.3

Note, next up: CCCC(=O)O[C@]1(C(=O)CCl)[C@@H](C)C[C@H]2[C@@H]3CCC4=CC(=O)C=C[C@]4(C)[C@@]3(F)C(=O)C[C@@]21C
-12.4

Follow-up item: Cc1nn(C)cc1/C=N/O
15.8

Now this one: CC1Cc2ccccc2N1NC(=O)c1ccc(Cl)c(S(N)(=O)=O)c1 (centres undefined)
-7.5

Now the molecule Cc1cc(C)n(-c2nnc(C)n2/N=C/c2ccccc2F)n1
13.6

Repeat with COc1ccc(/C(O)=C2/C(=O)C(=O)N(CCN(C)C)C2c2ccccn2)cc1OC (centres undefined)
-0.634

What do you get for CN1CCc2c(sc3c2c(=O)n(-c2ccccc2)c2nnc(SCc4ccccc4)n32)C1 ?
-12.4

Okay, and CC(C)(C)NCC(O)COc1cccc2c1C[C@H](O)[C@H](O)C2 (some centres undefined) ?
9.2

What do you have for CCSC(SCC)[C@H](O)[C@@H](O)[C@H](O)[C@H](O)CO ?
10.6

Another molecule to check: Cc1nc(-c2coc3cc(OCC(=O)O)ccc3c2=O)cs1
20.3

# iterate: COc1cc(/C=C/C(=O)CC(=O)/C=C/c2ccc(O)c(OC)c2)ccc1O
7.07

Quick one: O=C(NC1(C(F)(F)F)C(=O)Nc2c1c(=O)[nH]c(=O)n2Cc1ccco1)C1CCCCC1 (centres undefined)
12.9

Follow-up entry: N#C/C(=C\c1ccc(O)c(O)c1)C(=O)NCCCc1ccccc1
-14.9

Now give it for O=C(C1CC1(c1ccccc1)c1ccccc1)N1CCOCC1 (centres undefined) too.
18.5
